- Test system: KRas wild type
- ASSAY: Ras GTP binding domain inhibition assay (Cy3-GTP/Cy5-GTP competition)
- Parameters: species or system human
- APPLIED_CONDITIONS: 20 μM; without SOS (Table 7A)
QUANTITY_NAME: KRas wild type % inh.

Sample answers from the record:
CO[C@H]1C[C@@H](Nc2nc(-c3nccn3C)nc3sc(-c4ccn(C)n4)c(-c4ccccc4)c23)C1.Cl | C (51-75% inhibition)
CO[C@H]1CC[C@@H](Nc2nc(-c3nccn3C)nc3sc(-c4ccn(C(C)C)n4)c(-c4ccccc4)c23)C1 [drawing 912] | D (76-100% inhibition)
COc1cccc(-c2sc3nc(-c4nccn4C)nc(NC4CCC(OC)C4)c3c2C)c1F (stereo not shown) [drawing 893] | C (51-75% inhibition)
COc1cccc(-c2sc3nc(-c4nccn4C)nc(N[C@@H]4CC[C@H](OC)C4)c3c2C)c1F [drawing 894] | C (51-75% inhibition)

IN: Could you share which KRas wild type % inh. value was measured for CO[C@H]1C[C@@H](Nc2nc(-c3ncc[nH]3)nc3sc(-c4ccn(C)n4)c(-c4ccccc4)c23)C1 [drawing 910] ?
OUT: B (26-50% inhibition)

IN: Could you share which KRas wild type % inh. value was measured for CO[C@H]1C[C@@H](Nc2nc(-c3nccn3C)nc3sc(-c4cnn(C)c4)c(-c4ccccc4)c23)C1 [drawing 892] ?
OUT: D (76-100% inhibition)

IN: Could you share which KRas wild type % inh. value was measured for CO[C@H]1CC[C@@H](Nc2nc(-c3nccn3C)nc(C(=O)N3CCc4c(O)cccc4C3)c2C)C1 [drawing 901] ?
OUT: B (26-50% inhibition)

* * *

- Tested on: KRas G12C mutant
- ASSAY: Ras GTP binding domain inhibition assay (Cy3-GTP/Cy5-GTP competition)
- Design: species or system human
- APPLIED_CONDITIONS: 20 μM; with SOS
QUANTITY_NAME: KRas G12C mutant + SOS: % inh.

COC1CCN(c2nc(-c3nccn3C)nc3sc(-c4ccccc4Cl)c(-c4cscn4)c23)C1 (centres unmarked) [drawing 849] | C (51-75% inhibition)
O=C(c1nc(-c2ccccn2)nc(O)c1O)N1CCOCC1 [drawing 800] | A (1-25% inhibition)
O=C(NC1CCC1)c1nc(-c2ccccn2)nc(O)c1O [drawing 809] | B (26-50% inhibition)
COC1CCN(c2nc(-c3nccn3C)nc3sc(-c4cnn(C)c4)c(-c4ccccc4)c23)C1.Cl (centres unmarked) | D (76-100% inhibition)

IN: Could you share which KRas G12C mutant + SOS: % inh. value was measured for COCCNc1nc(-c2cn(C)cn2)nc2sc(-c3cc(OC)ccc3Cl)c(-c3ccc(OC)cc3)c12 [drawing 795] ?
OUT: D (76-100% inhibition)

IN: Could you share which KRas G12C mutant + SOS: % inh. value was measured for Cn1ccc(-c2sc3nc(-c4nccn4C)nc(NC4CCOCC4)c3c2-c2ccccc2)n1 [drawing 862] ?
OUT: A (1-25% inhibition)

IN: Could you share which KRas G12C mutant + SOS: % inh. value was measured for COC1CCN(c2nc(-c3nccn3C)nc3sc(Br)c(-c4ccccc4)c23)C1 (centres unmarked) [drawing 822] ?
OUT: D (76-100% inhibition)

* * *

- System: KRas G12C mutant
- ASSAY: Ras GTP binding domain inhibition assay (Cy3-GTP/Cy5-GTP competition)
- Set-up: species or system human
- APPLIED_CONDITIONS: 20 μM; without SOS
QUANTITY_NAME: KRas G12C mutant: % inh.

Sample answers from the record:
COc1cccc(-c2sc3nc(-c4nccn4C)nc(N4CCC(OC)C4)c3c2-c2cscn2)c1 (stereo not drawn) [drawing 867] | 0 (0% inhibition)
Cn1ccnc1-c1nc(O)c(O)c(C(=O)N2CCCCC2)n1 [drawing 826] | B (26-50% inhibition)
Cn1ccc(-c2sc3nc(-c4nccn4C)nc(N4CCC5(CCOC5)C4)c3c2-c2ccccc2)n1 (stereo not drawn) [drawing 857] | A (1-25% inhibition)
COCCn1ccnc1-c1nc(O)c2scc(-c3ccccn3)c2n1 [drawing 852] | C (51-75% inhibition)
Oc1nc(-c2cn3ccccc3n2)nc2c(-c3ccccn3)csc12 [drawing 816] | B (26-50% inhibition)
Cc1cnc(-c2nc(O)c3scc(-c4ccccn4)c3n2)n1C [drawing 808] | C (51-75% inhibition)
COC1CCN(c2nc(-c3nccn3C)nc3sc(-c4ccccc4CO)c(-c4ccccc4)c23)C1.Cl (stereo not drawn) | A (1-25% inhibition)

Now look at this entry.
IN: Under KRas G12C mutant: KRas G12C mutant: % inh. value of COCC(C)Nc1nc(-c2nccn2C)nc2sc(-c3ccn(C)n3)c(-c3ccc(OC)cc3)c12 (stereo not drawn) [drawing 869] ?
OUT: 0 (0% inhibition)

* * *

- Tested on: MAPK phosphorylation
- ASSAY: Western MAPK cell-based phosphorylation assay, NCI H1975
- APPLIED_CONDITIONS: Homo sapiens
Reported IC50 values are given for each entry in this list.

COCCNc1nc(-c2nccn2C)nc2sc(-c3cccc(OC)c3Cl)c(-c3ccccc3)c12 [drawing 472] | > 1000 nM

Now look at this entry.
IN: Could you share which IC50 value was measured for CO[C@H]1CCC(Nc2nc(-c3nccn3C)nc3sc(-c4ccn(C)n4)c(-c4ccccc4)c23)C1 (some centres unmarked) [drawing 474] ?
OUT: > 1000 nM

* * *

- Test system: MAPK phosphorylation
- ASSAY: MAPK cell-based phosphorylation assay (ELISA or Western), PANC-1
- APPLIED_CONDITIONS: Homo sapiens, PANC-1
Reported IC50 values are given for each entry in this list.

Sample answers from the record:
COCCNc1nc(-c2nccn2C)nc2sc(-c3cccc(OC)c3Cl)c(-c3ccccc3)c12 [drawing 472] | 750 to 1000 nM
COc1cccc(-c2sc3nc(-c4nccn4C)nc(N4CCC(OC)C4)c3c2-c2ccccc2)c1F (stereo not shown) [drawing 473] | > 1000 nM
CO[C@H]1CC[C@@H](Nc2nc(-c3nccn3C)nc3sc(-c4ccn(C(C)C)n4)c(-c4ccccc4)c23)C1 [drawing 475] | > 1000 nM

Now look at this entry.
IN: Could you share which IC50 value was measured for CO[C@H]1CCC(Nc2nc(-c3nccn3C)nc3sc(-c4ccn(C)n4)c(-c4ccccc4)c23)C1 (stereo partly shown) [drawing 474] ?
OUT: 750 to 1000 nM

* * *

- Test system: KRas Q61H mutant
- ASSAY: Ras GTP binding domain inhibition assay (Cy3-GTP/Cy5-GTP competition)
- Set-up: species or system human
- APPLIED_CONDITIONS: 20 μM; with SOS
QUANTITY_NAME: KRas Q61H mutant + SOS: % inh.

COc1c(O)nc(-c2ccccn2)nc1Oc1cccnc1 [drawing 802] | C (51-75% inhibition)
Oc1nc(-c2ncc3ccccn23)nc2c(-c3ccccn3)csc12 [drawing 834] | C (51-75% inhibition)
CC(C)CNC(=O)c1nc(-c2ccccn2)nc(O)c1O [drawing 811] | B (26-50% inhibition)
COc1cccc(Oc2nc(-c3ccccn3)nc(O)c2OC)c1 [drawing 801] | C (51-75% inhibition)
Cn1ccnc1-c1nc(O)c(O)c(C(=O)N2CCCC2)n1 [drawing 828] | B (26-50% inhibition)
COC1CCN(c2nc(-c3nccn3C)nc3sc(-c4ccccc4CO)c(-c4ccccc4)c23)C1.Cl (centres unmarked) | D (76-100% inhibition)
COc1ncccc1-c1sc2nc(-c3nccn3C)nc(N3CCC(OC)C3)c2c1-c1ccccc1.Cl (centres unmarked) | C (51-75% inhibition)
COCCc1ccc(Oc2nc(-c3ccccn3)nc(O)c2OC)cc1 [drawing 814] | C (51-75% inhibition)

IN: Under KRas Q61H mutant: KRas Q61H mutant + SOS: % inh. value of CO[C@H]1CCC(Nc2nc(-c3nccn3C)nc3sc(-c4ccn(C)n4)c(-c4ccccc4)c23)C1 (some centres unmarked) [drawing 860] ?
OUT: D (76-100% inhibition)

IN: Under KRas Q61H mutant: KRas Q61H mutant + SOS: % inh. value of COC1CCN(c2nc(-c3nccn3C)nc3sc(-c4ccccc4Cl)c(-c4cscn4)c23)C1 (centres unmarked) [drawing 849] ?
OUT: C (51-75% inhibition)

IN: Under KRas Q61H mutant: KRas Q61H mutant + SOS: % inh. value of COCCNc1nc(-c2cn(C)cn2)nc2sc(-c3cccc(OC)c3Cl)c(-c3ccc(OC)cc3)c12 [drawing 797] ?
OUT: D (76-100% inhibition)

IN: Under KRas Q61H mutant: KRas Q61H mutant + SOS: % inh. value of Cc1cn(C)c(-c2nc(O)c3scc(-c4ccccn4)c3n2)n1 [drawing 807] ?
OUT: C (51-75% inhibition)

IN: Under KRas Q61H mutant: KRas Q61H mutant + SOS: % inh. value of COCCNc1nc(-c2cn(C)cn2)nc2sc(-c3ccccc3Cl)c(-c3ccc(OC)cc3)c12 [drawing 873] ?
OUT: D (76-100% inhibition)

IN: Under KRas Q61H mutant: KRas Q61H mutant + SOS: % inh. value of COCC1CCN(c2nc(-c3nccn3C)nc3sc(-c4ccn(C)n4)c(-c4ccccc4)c23)C1 (centres unmarked) [drawing 858] ?
OUT: D (76-100% inhibition)

IN: Under KRas Q61H mutant: KRas Q61H mutant + SOS: % inh. value of Cc1cnc(-c2nc(O)c3scc(-c4ccccn4)c3n2)n1C [drawing 808] ?
OUT: B (26-50% inhibition)

IN: Under KRas Q61H mutant: KRas Q61H mutant + SOS: % inh. value of Cc1cc(Cn2ccnc2-c2nc(O)c3scc(-c4ccccn4)c3n2)on1 [drawing 846] ?
OUT: C (51-75% inhibition)

IN: Under KRas Q61H mutant: KRas Q61H mutant + SOS: % inh. value of COCCNc1nc(-c2nccn2C)nc2sc(-c3cccc(OC)c3Cl)c(-c3ccccc3)c12 [drawing 872] ?
OUT: D (76-100% inhibition)

IN: Under KRas Q61H mutant: KRas Q61H mutant + SOS: % inh. value of COCCCNc1nc(-c2nccn2C)nc2sc(-c3ccn(C)n3)c(-c3ccccc3)c12 [drawing 866] ?
OUT: B (26-50% inhibition)

IN: Under KRas Q61H mutant: KRas Q61H mutant + SOS: % inh. value of COC1CCN(c2nc(-c3nccn3C)nc3sc(-c4cnn(C)c4)c(-c4ccccc4)c23)C1.Cl (centres unmarked) ?
OUT: D (76-100% inhibition)

IN: Under KRas Q61H mutant: KRas Q61H mutant + SOS: % inh. value of COC1CCN(c2nc(-c3nccn3C)nc3sc(-c4cnc(C5CC5)o4)c(-c4ccccc4)c23)C1.Cl (centres unmarked) ?
OUT: C (51-75% inhibition)

IN: Under KRas Q61H mutant: KRas Q61H mutant + SOS: % inh. value of Oc1nc(-c2cn3cccnc3n2)nc2c(-c3ccccn3)csc12 [drawing 848] ?
OUT: A (1-25% inhibition)

IN: Under KRas Q61H mutant: KRas Q61H mutant + SOS: % inh. value of COC1CCN(c2nc(-c3nccn3C)nc3sc(Br)c(-c4ccccc4)c23)C1 (centres unmarked) [drawing 822] ?
OUT: C (51-75% inhibition)

IN: Under KRas Q61H mutant: KRas Q61H mutant + SOS: % inh. value of COC1CCN(c2nc(-c3nccn3C)nc3sc(-c4ccc(CO)cc4)c(-c4ccccc4)c23)C1.Cl (centres unmarked) ?
OUT: D (76-100% inhibition)

IN: Under KRas Q61H mutant: KRas Q61H mutant + SOS: % inh. value of O=C(c1nc(-c2ccccn2)nc(O)c1O)N1CCCC1 [drawing 831] ?
OUT: B (26-50% inhibition)

IN: Under KRas Q61H mutant: KRas Q61H mutant + SOS: % inh. value of COc1cccc(Cn2ccnc2-c2nc(O)c3scc(-c4ccccn4)c3n2)c1 [drawing 850] ?
OUT: D (76-100% inhibition)

IN: Under KRas Q61H mutant: KRas Q61H mutant + SOS: % inh. value of COc1c(O)nc(-c2ccccn2)nc1Oc1ccccc1 [drawing 813] ?
OUT: C (51-75% inhibition)

IN: Under KRas Q61H mutant: KRas Q61H mutant + SOS: % inh. value of COc1c(O)nc(-c2ccccn2)nc1Oc1ccc2ncccc2c1 [drawing 804] ?
OUT: C (51-75% inhibition)

IN: Under KRas Q61H mutant: KRas Q61H mutant + SOS: % inh. value of COCC(C)Nc1nc(-c2nccn2C)nc2sc(-c3ccn(C)n3)c(-c3ccccc3)c12 (centres unmarked) [drawing 864] ?
OUT: C (51-75% inhibition)

IN: Under KRas Q61H mutant: KRas Q61H mutant + SOS: % inh. value of COCCN(C)C(=O)c1nc(-c2ccccn2)nc(O)c1O [drawing 810] ?
OUT: A (1-25% inhibition)
